- Test system: A498 renal
- Assay Remarks: NCI tumour cell line growth inhibition, 48 h
Reported Property: TGI (µM)
Answers are plain numbers, in µM.

Check out these entries, answers already filled in.
Look up TGI for this molecule: `COc1ccc2c(c1)c(-c1cc(N)n3nc(-c4c[nH]c5ccccc45)cc3n1)cn2C` 27.6

Look up TGI for this molecule: `CCCCSc1nc(Nc2ccc(/C(C)=N/NC(N)=S)cc2)c(C#N)c(-c2ccc(OC)cc2)n1` 22.4

Okay, here is my list. What is TGI for each of these?
1. S=C(NCCc1ccccc1)Nc1ccc(OCc2nc3ccc(Cl)cc3[nH]2)cc1
2. Clc1cccc(N/N=C/c2c[nH]c3ccc(Br)cc23)n1

[22.7, 32.2]

---

- Tested on: SK-MEL-2 melanoma
- Assay Remarks: NCI tumour cell line growth inhibition, 48 h
Please respond with reported TGI for every item in the list.
One number for each entry, in µM.

Check out these entries, answers already filled in.
Recall the recorded TGI for `CCCCSc1nc(Nc2ccc(/C(C)=N/NC(N)=S)cc2)c(C#N)c(-c2ccc(OC)cc2)n1` with SK-MEL-2 melanoma and state it. 85.4

Recall the recorded TGI for `S=C(NCCc1ccccc1)Nc1ccc(OCc2nc3ccc(Cl)cc3[nH]2)cc1` with SK-MEL-2 melanoma and state it. 26.2

Recall the recorded TGI for `Clc1cccc(N/N=C/c2c[nH]c3ccc(Br)cc23)n1` with SK-MEL-2 melanoma and state it. 19.5

Recall the recorded TGI for `CCCCCc1ccc(S(=O)(=O)N(C(C)=O)c2cc(-c3csc(N(C)C(C)=O)n3)ccc2N2CCN(C)CC2)cc1` with SK-MEL-2 melanoma and state it. 19

API: the following record is the query input.
Recall the recorded TGI for `COc1ccc2c(c1)c(-c1cc(N)n3nc(-c4c[nH]c5ccccc45)cc3n1)cn2C` with SK-MEL-2 melanoma and state it. 3.96

---

- System: MDA-MB-468 breast
- Assay Remarks: NCI tumour cell line growth inhibition, 48 h
Reported Property: TGI

Check out these entries, answers already filled in.
Look up TGI for this compound: NC(CSSCC(N)C(=O)O)C(=O)O (centres undefined) > 100 µM

Look up TGI for this compound: Cc1ccc(C2NC(=O)c3ccccc3N2)c(C)c1 (centres undefined) > 100 µM

Look up TGI for this compound: `COc1ccc(C(=O)c2sc3nc(-c4cccs4)ccc3c2N)cc1OC` > 100 µM

More entries:
Look up TGI for this compound: `Cn1cc(C2=C(Nc3ccccc3)C(=O)NC2=O)c2ccccc21` > 25 µM
